target.under.test: Recombinant EGFR (Homo sapiens, UniProt P00533)
Sequence (P00533 25-1210): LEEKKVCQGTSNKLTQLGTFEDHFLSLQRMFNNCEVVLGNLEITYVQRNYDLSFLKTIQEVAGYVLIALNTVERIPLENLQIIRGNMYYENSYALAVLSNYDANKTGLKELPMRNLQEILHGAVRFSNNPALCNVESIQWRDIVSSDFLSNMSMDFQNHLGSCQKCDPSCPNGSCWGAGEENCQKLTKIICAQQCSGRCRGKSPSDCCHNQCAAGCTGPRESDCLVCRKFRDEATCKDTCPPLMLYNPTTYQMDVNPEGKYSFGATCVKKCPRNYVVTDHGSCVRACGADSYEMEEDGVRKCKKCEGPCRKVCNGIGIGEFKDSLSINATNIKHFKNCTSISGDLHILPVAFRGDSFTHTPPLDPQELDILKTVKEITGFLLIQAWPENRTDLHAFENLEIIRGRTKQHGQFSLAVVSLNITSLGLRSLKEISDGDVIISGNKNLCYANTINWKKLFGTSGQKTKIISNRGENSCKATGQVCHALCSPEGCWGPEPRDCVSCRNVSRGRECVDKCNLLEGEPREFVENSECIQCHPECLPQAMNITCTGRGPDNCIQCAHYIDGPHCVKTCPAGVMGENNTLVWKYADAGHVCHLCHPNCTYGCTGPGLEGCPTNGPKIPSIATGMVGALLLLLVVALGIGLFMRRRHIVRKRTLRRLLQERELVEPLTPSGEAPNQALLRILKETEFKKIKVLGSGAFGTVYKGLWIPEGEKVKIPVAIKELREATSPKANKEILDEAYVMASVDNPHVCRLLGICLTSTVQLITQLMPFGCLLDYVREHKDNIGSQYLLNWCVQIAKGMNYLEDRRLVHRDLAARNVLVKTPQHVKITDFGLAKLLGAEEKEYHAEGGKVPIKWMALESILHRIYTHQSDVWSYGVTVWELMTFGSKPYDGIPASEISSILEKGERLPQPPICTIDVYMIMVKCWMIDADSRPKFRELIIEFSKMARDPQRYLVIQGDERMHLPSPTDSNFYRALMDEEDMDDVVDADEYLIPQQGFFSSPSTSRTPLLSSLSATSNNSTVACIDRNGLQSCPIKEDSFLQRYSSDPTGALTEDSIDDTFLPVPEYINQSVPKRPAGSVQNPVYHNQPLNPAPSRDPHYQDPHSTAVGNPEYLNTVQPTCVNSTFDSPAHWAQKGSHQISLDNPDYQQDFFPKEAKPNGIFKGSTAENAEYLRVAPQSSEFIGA
measurement.protocol: EGFR binding affinity (LanthaScreen TR-FRET)
condition: Kinase Tracer 199, 5 h incubation
measurement.label: IC50

molecule	target.under.test	IC50
COc1ccccc1C(=O)NCc1ccc(-c2nn(-c3cccc(F)c3F)c(N)c2C(N)=O)cc1	Recombinant EGFR (Homo sapiens, UniProt P00533)	0.1 to 1 µM
CNc1c(C(N)=O)c(-c2ccc(CNC(=O)c3ccccc3OC)cc2)nn1C1CCCC1	Recombinant EGFR (Homo sapiens, UniProt P00533)	0.1 to 1 µM
COc1ccc(F)cc1C(=O)NCc1ccc(-c2nn(CC(C)C(F)(F)F)c(N)c2C(N)=O)cc1 (stereo not shown)	Recombinant EGFR (Homo sapiens, UniProt P00533)	1 to 10 µM

Prompt: Look up IC50: COc1ccccc1C(=O)NCc1ccc(-c2nn(C3CCOCC3)c(N)c2C(N)=O)c(F)c1
Completion: > 10 µM

Prompt: What about this molecule? COc1ccccc1C(=O)NCc1ccc(-c2nn(C3CCOCC3F)c(N)c2C(N)=O)cc1 (single isomer, unassigned) [Example 95]
Completion: 1 to 10 µM

Prompt: What about this molecule? COc1ccccc1C(=O)NCc1ccc(-c2nn(CC(=O)C(C)(C)C)c(N)c2C(N)=O)cc1
Completion: 1 to 10 µM

Prompt: What about this molecule? COc1ccccc1C(=O)NCc1ccc(-c2nn(C[C@H]3CCCNC3)c(N)c2C(N)=O)cc1
Completion: > 10 µM

Prompt: What about this molecule? COc1ccccc1C(=O)NCc1ccc(-c2nn(C)c(N)c2C(N)=O)cc1
Completion: > 10 µM

* * *

target.under.test: Recombinant EGFR (Homo sapiens, UniProt P00533)
measurement.protocol: EGFR binding affinity (LanthaScreen TR-FRET)
condition: Kinase Tracer 199, 5 h incubation
pIC50: −log10 of the molar value.
measurement.label: pIC50

compound	value.observed
COc1ccc(F)cc1C(=O)NCc1cc(F)c(-c2nn(C3CCCC3)c(N)c2C(N)=O)cc1F	5.00 to 6.00

Prompt: Look up pIC50: COc1ccc(F)cc1C(=O)NCc1ccc(-c2nn(C3CCN(C)CC3(F)F)c(N)c2C(N)=O)cc1 (stereo not drawn)
Completion: 5.00 to 6.00

Prompt: What about this compound? COc1ccccc1C(=O)NCc1ccc(-c2nn(C3CCCC(C(=O)N(C)C)C3)c(N)c2C(N)=O)cc1 (single isomer, unassigned)
Completion: 6.00 to 7.00

Prompt: What about this compound? COc1ccccc1C(=O)NCc1ccc(-c2nn(C3CCOC(C(F)(F)F)C3)c(N)c2C(N)=O)cc1 (stereo not drawn)
Completion: 6.00 to 7.00

Prompt: What about this compound? COc1ccc(F)cc1C(=O)NCc1ccc(-c2nn(CCC(F)(F)F)c(N)c2C(N)=O)cc1
Completion: 5.00 to 6.00

Prompt: What about this compound? COc1ccc(F)cc1C(=O)NCc1c(F)cc(-c2nn(C3CCCC3)c(N)c2C(N)=O)cc1F
Completion: < 5.00

Prompt: What about this compound? COc1ccccc1C(=O)NCc1ccc(-c2nn(-c3ccc(C(F)(F)F)cn3)c(N)c2C(N)=O)cc1
Completion: < 5.00

Prompt: What about this compound? COc1ccccc1C(=O)NCc1ccc(-c2nn(-c3cc(F)ccc3F)c(N)c2C(N)=O)cc1
Completion: 6.00 to 7.00

Prompt: What about this compound? COc1ccccc1C(=O)NCc1cc(F)c(-c2nn(C3CCCOC3)c(N)c2C(N)=O)cc1F (stereo not drawn)
Completion: 5.00 to 6.00
